- Test system: A549
- measurement_description: NCI tumour cell line growth inhibition, 48 h
Activity calls are given as the source filed them. Cut-off read from the data, not from the text of the source: active = GI50 up to about 1.1 µM and inactive = higher.
measurement_label: GI50

compound: O=C(NC(=O)c1c(F)cccc1F)Nc1cccc(Oc2ncc(Cl)cn2)c1
measured: > 39.9 µM (inactive)
//
compound: O=C(C=P(c1ccccc1)(c1ccccc1)c1ccccc1)c1ccc(-c2cccs2)cc1
measured: 3.17 µM (inactive)
//
compound: CSc1nc2c(=O)n(-c3ccccc3)c(=S)n(-c3ccccc3)c2s1
measured: > 100 µM (inactive)
//
compound: Clc1ccc(NCNC2Nc3ccccc3N2)cc1Cl
measured: 56.9 µM (inactive)
//
compound: COc1cc(C2c3cc4c(cc3[C@@H](Nc3cccc([N+](=O)[O-])c3)C3COC(=O)[C@H]23)OCO4)cc(OC)c1O (stereo not given in full)
measured: 0.2 µM (active)
